Reported 3' UTR reporter interaction score values for a set of sequences
- Tested on: MYC
- assay_comment: 3' UTR reporter interaction score (median-centred robust z-score of log2 firefly/Renilla activity); higher = less repression of the 3' UTR reporter
- experimental_conditions: HEK293T; 48 h

residue_string | 3' UTR reporter interaction score
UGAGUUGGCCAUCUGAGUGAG | -0.317
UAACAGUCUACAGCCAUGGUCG | 0.473
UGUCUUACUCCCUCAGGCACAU | -0.519
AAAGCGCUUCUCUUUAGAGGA | -0.0856
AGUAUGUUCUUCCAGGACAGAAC | 0.576
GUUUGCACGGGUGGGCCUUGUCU | -0.328
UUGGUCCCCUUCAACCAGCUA | 0.62
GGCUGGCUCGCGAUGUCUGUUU | -0.237
ACAUAGAGGAAAUUCCACGUUU | -0.782
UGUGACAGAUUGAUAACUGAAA | 0.173
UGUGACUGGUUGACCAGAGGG | 0.219
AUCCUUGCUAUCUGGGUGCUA | 0.118
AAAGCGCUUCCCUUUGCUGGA | -0.245
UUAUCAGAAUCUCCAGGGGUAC | 1.44
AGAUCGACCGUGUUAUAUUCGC | 0.022
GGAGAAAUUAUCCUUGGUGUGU | -1.2
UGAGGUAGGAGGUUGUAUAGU | -2.75
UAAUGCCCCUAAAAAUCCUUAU | 0.136
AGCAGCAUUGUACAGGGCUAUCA | 0.869
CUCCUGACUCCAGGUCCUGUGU | 1.1
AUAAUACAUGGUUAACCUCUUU | 0.024
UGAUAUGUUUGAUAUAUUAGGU | 0.0447
AACAUUCAUUGCUGUCGGUGGG | 0.124
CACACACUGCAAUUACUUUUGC | 0.144
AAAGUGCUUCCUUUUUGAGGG | 0.0093
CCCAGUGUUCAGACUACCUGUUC | 0.666
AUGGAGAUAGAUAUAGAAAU | 0.503
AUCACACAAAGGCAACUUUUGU | 0.0727
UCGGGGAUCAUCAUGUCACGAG | -1.16
UUGCAUAGUCACAAAAGUGA | 0.279
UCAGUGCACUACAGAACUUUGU | 0.0974
AACUGGCCUACAAAGUCCCAG | 0.942
AGAGGUAGUAGGUUGCAUAGU | -2.12
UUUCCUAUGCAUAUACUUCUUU | 0.151
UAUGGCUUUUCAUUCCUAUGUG | -0.427
UCUAGUAAGAGUGGCAGUCG | -0.209
UGGAAUGUAAAGAAGUAUGUA | 0.479
AAAAGUGCUUACAGUGCAGGUAGC | 0.278
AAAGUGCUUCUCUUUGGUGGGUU | -0.26
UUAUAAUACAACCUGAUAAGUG | 1.32
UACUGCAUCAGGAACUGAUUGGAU | 0.358
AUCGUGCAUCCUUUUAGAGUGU | -0.764
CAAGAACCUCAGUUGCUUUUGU | 0.13
UGAGCUGCUGUACCAAAAU | -0.354
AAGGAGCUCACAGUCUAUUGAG | -0.238
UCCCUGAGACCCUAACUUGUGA | 1.24
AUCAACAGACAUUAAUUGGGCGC | -1.29
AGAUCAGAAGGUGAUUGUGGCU | -0.231
AACAUUCAUUGUUGUCGGUGGGUU | -0.122
UCCCUGUCCUCCAGGAGCUCA | 0.568
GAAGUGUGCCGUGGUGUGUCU | -0.0876
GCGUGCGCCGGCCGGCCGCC | -1.82
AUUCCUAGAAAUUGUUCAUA | -0.586
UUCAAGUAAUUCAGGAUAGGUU | -1.49
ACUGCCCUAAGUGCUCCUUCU | 0.276
CACGCUCAUGCACACACCCAC | 0.38
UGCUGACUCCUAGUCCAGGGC | 0.54
UUUGGCAAUGGUAGAACUCACA | -0.026
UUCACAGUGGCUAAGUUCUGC | -0.0656
UGUAAACAUCCUCGACUGGAAG | -0.476
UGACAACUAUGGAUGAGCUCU | 0.174
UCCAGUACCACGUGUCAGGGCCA | -0.893
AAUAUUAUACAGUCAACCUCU | 0.0661
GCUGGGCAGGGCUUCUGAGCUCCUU | -0.481
ACUGCAGUGAAGGCACUUGU | 0.291

Data credit: the supplement of paper PMC5844555
